Quick reference: Top (MFI) of the listed items.
# assayedSystem: T1, ROR1 naturally expressed on human tumor cell lines (A549, Jeko-1, SW620, PA-1) (human, UniProt Q01973 30-937)
# T1 construct: whole, on cells; also called cells expressing ROR1
# T1 sequence (Q01973 30-937): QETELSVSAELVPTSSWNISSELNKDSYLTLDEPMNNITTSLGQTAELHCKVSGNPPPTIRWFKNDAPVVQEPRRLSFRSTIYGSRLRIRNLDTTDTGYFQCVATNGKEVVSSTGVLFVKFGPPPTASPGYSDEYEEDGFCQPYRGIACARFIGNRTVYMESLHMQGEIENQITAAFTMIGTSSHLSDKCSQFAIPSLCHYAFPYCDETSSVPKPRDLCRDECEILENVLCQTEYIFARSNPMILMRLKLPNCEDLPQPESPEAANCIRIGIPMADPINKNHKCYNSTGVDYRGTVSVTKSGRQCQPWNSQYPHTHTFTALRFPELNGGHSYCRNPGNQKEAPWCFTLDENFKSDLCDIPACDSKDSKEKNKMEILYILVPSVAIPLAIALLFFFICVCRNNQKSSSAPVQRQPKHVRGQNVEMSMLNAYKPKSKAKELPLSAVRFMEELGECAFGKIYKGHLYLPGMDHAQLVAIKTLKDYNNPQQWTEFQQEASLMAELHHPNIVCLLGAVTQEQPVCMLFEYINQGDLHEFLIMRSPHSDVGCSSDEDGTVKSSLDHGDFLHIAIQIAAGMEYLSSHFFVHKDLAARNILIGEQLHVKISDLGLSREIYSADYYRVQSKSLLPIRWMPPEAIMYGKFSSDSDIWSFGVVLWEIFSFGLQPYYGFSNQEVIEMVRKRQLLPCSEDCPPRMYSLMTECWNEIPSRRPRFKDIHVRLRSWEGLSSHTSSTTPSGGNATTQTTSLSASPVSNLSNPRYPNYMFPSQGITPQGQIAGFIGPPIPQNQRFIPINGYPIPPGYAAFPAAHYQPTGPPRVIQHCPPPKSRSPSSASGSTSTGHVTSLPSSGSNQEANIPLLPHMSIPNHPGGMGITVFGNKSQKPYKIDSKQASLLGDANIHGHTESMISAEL
# testName: FACS on SW620 cells naturally expressing ROR1
Field: numeric (MFI). Do not append units.

ch135A2B10 (antibody, human IgG1, kappa, V domains shown, also called chimeric antibody of m135A2B10) VH: DVKLVESGGGLVTPEGSLKLSCAASGFAFSTYGMAWVRQTPEKRLEWVASIHKGGFSTYYPDNVKGRFTISRDNDKNTLYLQMSSLKSEDTAMYYCIRHDWDGAMDYWGQGTSVTVSS VL: DIVLTQSPSSMYASLGERVTITCKASQDINSYLNWFQQKPGKSPKTLIYRANRLVDGVPSRFSGSGSGQDYSLTISSLEYEDLGIYYCLQFDEFPYTFGGGTKLEIKR = 29800

Query: Dear colleague, I am looking for the recorded Top (MFI) of the following binder: ch137G11D10 (antibody, human IgG1, kappa, V domains shown, also called chimeric antibody of m137G11D10) VH: DVQLQESGPGLVKPSQSLSLTCTVTGYSITSDYAWNWIRQFPGNKLEWMGYITYSASTSYNPSLKSRISITRDTSKNQFFLQLNSVTTEDTATYYCARGAGTYYFDYWGQGSTLTVSS VL: DIVLTQSPASLSVATGEKVTIRCITSTDIDEDMNWYQQKPGEPPKLLISEDNSLRPGVPSRFSSSGYGTDFVLTIENTLSEDVADYYCLQTNNLPLTFGAGTKLEIKR
Reply: 27300

Query: Dear colleague, I am looking for the recorded Top (MFI) of the following binder: ch3G9B1 (antibody, human IgG1, kappa, V domains shown, also called chimeric antibody of m3G9B1) VH: QVQLQQSGTELARPGASVKLSCKASGYTFTSYGITWVKQRTGQGLEWIGEIYPRSGNTYFNEKFKGKATLTADKSSSTAYMELRSLTSEDSAVYFCARDRTGTGVDDYWGQGTTLTVSS VL: DIVLTQSPASLSMAIGEKVTIRCITNTDIDDDMSWYQQKPGEPPNLLISEGNTLRPGVPSRFSSSGYGRDFVFTIENMLSEDVADYYCLQSNNLPYTFGGGTKLEIKR
Reply: 20400

Query: Dear colleague, I am looking for the recorded Top (MFI) of the following binder: UC-961 (antibody, V domains shown) VH: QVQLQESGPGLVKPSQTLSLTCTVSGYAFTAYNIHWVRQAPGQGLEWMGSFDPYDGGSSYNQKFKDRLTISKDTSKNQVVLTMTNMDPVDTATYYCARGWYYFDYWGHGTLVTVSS VL: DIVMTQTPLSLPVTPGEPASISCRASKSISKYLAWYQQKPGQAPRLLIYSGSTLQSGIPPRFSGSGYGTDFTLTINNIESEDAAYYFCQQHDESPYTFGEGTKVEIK
Reply: 23900

Query: Dear colleague, I am looking for the recorded Top (MFI) of the following binder: ch29H5D8 (antibody, human IgG1, kappa, V domains shown, also called chimeric antibody of m29H5D8) VH: EVQLQQSGAELARPGASVKLSCKASGYTFTNYGISWVKQRTGQGLEWIGEIYPRSVNTYYSAKFKGKATLTADKSSSTAYMELRSLTSEDSAVYFCARHYYGSSLDYWGQGTTLTVSS VL: DIVLTQSPASLSVATGEKVTIRCITSSDIEDDMNWYQQKPGEPPKLLISEGNSLRPGVPSRFSSSGYGTDFVFTIENTLSEDVADYYCLQSDNIFTFGSGTKLEIKR
Reply: 27000
